Readings of EC50 for the listed compounds
Experiment: growth suppression of beta-catenin-knockout colon cells, dose response, cell-based, HCT116, human colon tumor (AID 1045);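 note: HCT116 colon tumor cells with beta catenin knocked out; cells exposed to compound for 60 hours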
Format: functional
The source made the active and inactive calls.

Past entries and their recorded results:
# COMPOUND, EC50
rows = [
    ("Cc1cc(C)cc(NS(=O)(=O)c2ccc3[nH]cc(C(=O)NCc4ccco4)c(=O)c3c2)c1", "1.78 µM (active)"),
    ("CCOC(=O)C(C(=O)OCC)C(Nc1cccc(Br)c1)c1ccccc1 (centres undefined)", "147 µM (active)"),
    ("Cc1cc2cc(CN(Cc3cccs3)S(=O)(=O)c3ccc4c(c3)OCCO4)c(O)nc2cc1C", "30.2 µM (active)"),
]

Below: the item to evaluate.
Fill blank: measured EC50 of the compound CCOC(=O)C(C(C)=O)c1c(Br)c(O)c(O)c2c(C(=O)c3ccc(C)cc3)coc12 (centres undefined) is ____.
15.8 µM (active)

---

Molecular target: Calpain-2 catalytic subunit (Sus scrofa)
Sequence (P43367 whole entry): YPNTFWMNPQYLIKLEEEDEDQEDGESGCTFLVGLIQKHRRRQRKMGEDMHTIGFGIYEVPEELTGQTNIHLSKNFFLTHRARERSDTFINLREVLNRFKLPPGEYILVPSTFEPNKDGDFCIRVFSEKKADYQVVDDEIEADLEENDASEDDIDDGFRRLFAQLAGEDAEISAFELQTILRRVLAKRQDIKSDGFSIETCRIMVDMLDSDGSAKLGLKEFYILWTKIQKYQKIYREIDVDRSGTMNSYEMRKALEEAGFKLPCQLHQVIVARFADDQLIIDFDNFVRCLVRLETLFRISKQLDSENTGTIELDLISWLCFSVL
Assay: pig calpain II inhibitor potency, dose response, biochemical, fluorogenic peptide substrate (AID 1420)
Type: functional
OUTCOME_MEASURE: IC50

Request the reported IC50 associated with Cc1ccc(CNC(=O)CN=C(S)N(Cc2ccccc2)Cc2ccccc2F)cc1
5.45 µM (not active)

---

Biological target: Heat shock factor protein 1 (Mus musculus)
Sequence (P38532 whole entry): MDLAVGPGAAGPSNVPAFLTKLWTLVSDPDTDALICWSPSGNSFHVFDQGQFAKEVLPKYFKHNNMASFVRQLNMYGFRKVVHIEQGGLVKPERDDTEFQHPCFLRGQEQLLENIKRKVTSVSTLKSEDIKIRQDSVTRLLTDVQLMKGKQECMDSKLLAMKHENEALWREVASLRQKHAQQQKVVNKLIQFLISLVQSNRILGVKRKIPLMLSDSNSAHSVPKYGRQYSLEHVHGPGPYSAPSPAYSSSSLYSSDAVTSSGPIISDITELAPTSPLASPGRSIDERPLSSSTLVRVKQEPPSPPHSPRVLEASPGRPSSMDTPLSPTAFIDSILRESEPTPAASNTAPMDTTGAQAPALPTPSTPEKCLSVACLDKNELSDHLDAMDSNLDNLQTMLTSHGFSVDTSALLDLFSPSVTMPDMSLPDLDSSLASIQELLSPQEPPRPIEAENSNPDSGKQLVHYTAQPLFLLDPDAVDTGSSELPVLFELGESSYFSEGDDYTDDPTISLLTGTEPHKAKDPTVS
Test: inhibition of MG132-induced HSE-luciferase signal, confirmation, cell-based, NIH3T3, luminescence, dose retest (AID 2382);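 note: NIH3T3 fibroblasts with HSF1-driven luciferase reporter stressed by proteasome inhibitor MG132; luminescence from HSF1-driven luciferase expression after 8 hours of MG132 stress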
Type: functional
OUTCOME_MEASURE: EC50

# COMPOUND, EC50
records = [
    ("CC(CCc1ccccc1)NC(=O)c1cccc([N+](=O)[O-])c1 (stereo not drawn)", "> 195 µM (not active)"),
    ("Cc1ccnc(NC(=O)CS(=O)(=O)c2ccccc2)c1", "> 195 µM (not active)"),
    ("CC(=O)Nc1ccc(-c2cn3c(n2)SCC3)cc1", "> 195 µM (not active)"),
]

What EC50 value was documented for this compound, CCN1C(=S)SC(=O)C1=C1C=C(C)N(Cc2ccco2)C(C)=C1 ?
> 195 µM (not active)

// query: NS(=O)(=O)c1ccc(CNC(=O)c2cnccn2)cc1
> 195 µM (not active)

Follow-up entry: COc1ccc(C(=O)Nc2ccc3c(c2)nc(CN2CCCC2)n3C)cc1
> 195 µM (not active)

Thanks! And CC(C)C(=O)Nc1ccc(C(=O)N2CCN(C(=O)c3ccco3)CC2)cc1 ?
> 195 µM (not active)

Request: O=C(O)c1cccc(COc2ccc3c(c2)CCC3)c1
0.376 µM (inconclusive)

And for CN(C(=O)c1ccccc1C(=O)OCC(=O)Nc1ccc(S(N)(=O)=O)cc1)c1ccccc1 ?
> 195 µM (not active)

---

Target: Zinc finger protein mex-5 (Caenorhabditis elegans, UniProt Q9XUB2)
Sequence (Q9XUB2 whole entry): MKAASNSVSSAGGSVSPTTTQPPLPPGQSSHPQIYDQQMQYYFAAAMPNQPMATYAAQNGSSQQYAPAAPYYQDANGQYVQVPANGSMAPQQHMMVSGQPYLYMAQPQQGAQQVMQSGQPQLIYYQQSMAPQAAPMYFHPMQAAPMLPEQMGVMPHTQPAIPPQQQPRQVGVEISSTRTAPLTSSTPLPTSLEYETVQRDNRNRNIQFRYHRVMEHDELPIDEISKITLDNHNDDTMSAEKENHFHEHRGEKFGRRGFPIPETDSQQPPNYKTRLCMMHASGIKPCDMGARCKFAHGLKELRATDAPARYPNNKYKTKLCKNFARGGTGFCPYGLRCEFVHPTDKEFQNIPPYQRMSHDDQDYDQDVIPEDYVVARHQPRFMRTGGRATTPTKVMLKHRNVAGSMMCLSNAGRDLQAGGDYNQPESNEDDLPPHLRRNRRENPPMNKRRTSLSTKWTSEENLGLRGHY
Assay: MEX-5/TCR-2 RNA interaction inhibitors, dose response, biochemical, C. elegans, fluorescence polarization (AID 1960)
Activity calls are given as the source filed them.
Each entry below carries its recorded EC50.

Sample records with EC50:
# COMPOUND, OUTCOME_MEASURE, RECORDED_VALUE
data = [
    ("Cc1ccc(S(=O)(=O)C(C#N)c2nc3ccccc3nc2N2CC(C)OC(C)C2)cc1C (stereo not given)", "EC50", "26.1 µM (inconclusive)"),
    ("Cc1cc(C)c2c(c1)NC(c1cc3c(cc1Br)OCO3)C1CC=CC21 (stereo not given)", "EC50", "> 300 µM (not active)"),
]

Quick one: EC50 for Cc1ccc(/C=C2\C(=O)NC(=S)N(c3ccc(F)cc3)C2=O)o1 ?
43.9 µM (active)

Further, for CC(=O)c1ccc2c(c1)C1C=CCC1C(c1ccncc1)N2 (stereo not given) ?
47.7 µM (active)

Next compound up: O=C(O)c1ccc2nc(-c3ccco3)c(-c3ccco3)nc2c1
10.1 µM (active)

Follow-up item: CCCNS(=O)(=O)c1ccc(CCC(=O)NCc2ccc3c(c2)OCO3)cc1
> 300 µM (not active)

Entry to check: CCCCC1(C)OC(=O)C(=Cc2ccc(N(CC)CC)cc2)C(=O)O1 (stereo not given)
> 300 µM (not active)

Check CC1(OC(=O)c2ccco2)C(=O)C=C2C=C(c3ccsc3)OC=C2C1=O (stereo not given) too.
23.1 µM (active)

# repeat for Cc1cnc(C(=O)NNC(=O)c2ccc(Br)cc2)cn1
9.68 µM (active)

Repeat with O=C(O[C@@H]1Cc2c(O)cc(O)cc2O[C@@H]1c1cc(O)c(O)c(O)c1)c1cc(O)c(O)c(O)c1 [EPIGALOCATECHIN GALLATE]
0.727 µM (active)

---

The following compounds are shown together with reported IC50 values.
Biological target: Prothrombin (Homo sapiens)
Experiment: Thrombin 1536 HTS Dose Response Confirmation. [Related pubchem assays: 1046 (Thrombin 1536 HTS; hits were confirmed in this assay)]
Format: functional
Activity calls are given as the source filed them.

Recorded results for 3 compounds are shown here.
# MOLECULE, TARGET_OR_TEST_SYSTEM, OUTCOME_MEASURE, RECORDED_VALUE
measured = [
    ("COc1ccc(NC(=O)n2nc(OC(=O)c3cccs3)cc2N)cc1", "Prothrombin (Homo sapiens)", "IC50", "12.7 µM (active)"),
    ("COC(=O)CSc1nnc(-c2ccccc2OC)n1-c1ccc(C)cc1", "Prothrombin (Homo sapiens)", "IC50", "> 50 µM (not active)"),
    ("COC(=O)c1n[nH]c(NC(=O)c2ccccc2Br)n1", "Prothrombin (Homo sapiens)", "IC50", "0.082 µM (active)"),
]

Next:
Look at this compound and give its reported IC50. COCC(=O)n1nc(-c2ccc(Cl)cc2)nc1NCc1ccc(F)cc1
1.8 µM (active)

---

Recorded IC50 values for a group of compounds are listed next.
Molecular target: Glyceraldehyde-3-phosphate dehydrogenase (Homo sapiens)
Sequence (P04406 whole entry): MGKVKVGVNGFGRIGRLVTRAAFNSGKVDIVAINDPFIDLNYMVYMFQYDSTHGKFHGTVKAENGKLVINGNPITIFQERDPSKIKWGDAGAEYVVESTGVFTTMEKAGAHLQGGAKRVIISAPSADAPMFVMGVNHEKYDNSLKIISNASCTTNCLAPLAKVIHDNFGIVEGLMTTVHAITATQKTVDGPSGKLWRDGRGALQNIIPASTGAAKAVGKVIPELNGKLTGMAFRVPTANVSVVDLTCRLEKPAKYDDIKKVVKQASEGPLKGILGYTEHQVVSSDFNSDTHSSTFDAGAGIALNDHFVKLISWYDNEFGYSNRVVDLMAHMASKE

These recorded examples may help you get a feel for the data.
# COMPOUND, IC50
records = [
    ("COc1ccc(S(=O)(=O)Nc2cccnc2)cc1OC", "> 100 µM (not active)"),
    ("CCOc1ccc(-c2cc(CCCC(=O)Nc3cc(OC)ccc3OC)no2)cc1", "> 100 µM (not active)"),
    ("CC(C)CCNC(=O)c1cc(-c2ccc(Cl)cc2Cl)n[nH]1", "> 10 µM (inconclusive)"),
]

Entry Cc1ccc(-c2cc(C(=O)O)[nH]n2)cc1 has what IC50?
> 100 µM (not active)

Try the compound Cc1ccc(C)c2c1NC(C(=O)O)C1CC=CC21 (stereo not given)
> 100 µM (not active)

---

Target: Cytochrome P450 2C19 (Homo sapiens, UniProt P33261)
Sequence (P33261 whole entry): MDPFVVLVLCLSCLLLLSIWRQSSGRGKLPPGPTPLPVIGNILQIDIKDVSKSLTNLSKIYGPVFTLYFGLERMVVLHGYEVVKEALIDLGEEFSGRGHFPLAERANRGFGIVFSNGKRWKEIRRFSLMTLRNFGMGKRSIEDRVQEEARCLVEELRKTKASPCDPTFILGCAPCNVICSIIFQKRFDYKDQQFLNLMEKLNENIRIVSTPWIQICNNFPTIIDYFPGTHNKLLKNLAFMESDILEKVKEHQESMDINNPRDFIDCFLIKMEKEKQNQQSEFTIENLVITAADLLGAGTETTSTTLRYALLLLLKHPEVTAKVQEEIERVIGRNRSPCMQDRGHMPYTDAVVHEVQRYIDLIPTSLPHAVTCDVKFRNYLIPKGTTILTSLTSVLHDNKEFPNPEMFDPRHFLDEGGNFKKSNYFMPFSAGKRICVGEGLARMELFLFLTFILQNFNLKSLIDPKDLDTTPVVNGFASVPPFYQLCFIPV
Experiment: Cytochrome panel assay with activity outcomes. Panel member name: p450-cyp2c19 Compounds with AC50 equal or less than 10 uM are considered active
Format: functional
Conditions: read-out: AC50
OUTCOME_MEASURE: AC50

Record excerpt, results attached:
# MOLECULE, AC50
rows = [
    ("CCC(C)(C)NC(=O)c1ccc2c(c1)N(CC(=O)OC)C(=O)C(C)(C)O2", "20 µM (inconclusive)"),
    ("C/C(CCC(=O)OC[C@@H]1O[C@H](C#Cc2ccccc2)C=C[C@@H]1Oc1ccc(C)cc1)=N/O[C@@H](C)CN1CCCCc2nc(C)c(C)cc21", "1.26 µM (inconclusive)"),
]

Give the measured AC50 of COc1ccc(CCNC=C2C(=O)CC(C)(C)CC2=O)cc1 .
28.2 µM (inconclusive)

---

Target: Protein RecA (Mycobacterium tuberculosis, UniProt P9WHJ3)
Experiment: Fluorescence Cell-Free Homogeneous Dose Retest to Identify Inhibitors of RecA-Intein Splicing Activity. [Related pubchem assays (depositor defined):AID2097, AID2223, AID489010, AID492950]
Format: functional
The source made the active and inactive calls.
The entries below come with measured EC50 values attached.

Take a look at these entries with their results.
# COMPOUND, TARGET_OR_TEST_SYSTEM, EC50
rows = [
    ("COc1ccc(NC(=O)/C(C#N)=C/c2ncc([N+](=O)[O-])n2C)c(OC)c1", "Protein RecA (Mycobacterium tuberculosis, UniProt P9WHJ3)", "15.6 µM (active)"),
    ("CC1=NN(c2nc(-c3ccccc3)cs2)C(=O)C1", "Protein RecA (Mycobacterium tuberculosis, UniProt P9WHJ3)", "6.75 µM (active)"),
    ("Cc1[nH][nH]c(=O)c1C(c1ccc(N(C)C)c(Br)c1)c1c(C)[nH][nH]c1=O", "Protein RecA (Mycobacterium tuberculosis, UniProt P9WHJ3)", "0.274 µM (active)"),
    ("C=CCSC(=C(C#N)C#N)c1cc2c([nH]1)CCCC2", "Protein RecA (Mycobacterium tuberculosis, UniProt P9WHJ3)", "6.29 µM (active)"),
    ("CN(C(=O)c1ccc(S(=O)(=O)c2cccc(Cl)c2)c([N+](=O)[O-])c1)C1CCCCC1", "Protein RecA (Mycobacterium tuberculosis, UniProt P9WHJ3)", "4.33 µM (active)"),
]

Which measured EC50 value corresponds to Nn1cnnc1N/N=C/c1ccc(Cl)c([N+](=O)[O-])c1 ?
10.3 µM (active)

Likewise for COc1cc(Br)c(C2C(C#N)=C(N)Oc3[nH]nc(-c4cccnc4)c32)cc1OC (stereo unspecified) ?
8.6 µM (active)

Would you kindly repeat that for O=C(NC1CCCCC1)C(c1cccnc1)N(C(=O)CCl)c1cccc(Cl)c1 (stereo unspecified) ?
0.467 µM (active)

Same question, C/C(CC(=O)Nc1cc(C)ccn1)=N\NC(=O)c1ccccc1C this time
6.24 µM (active)

Can you handle Cc1ccc(C)c(N/C([S-])=C(/C(=O)c2ccc(OC(F)F)cc2)[n+]2ccccc2)c1 next?
11.5 µM (active)

Similarly, CCCCCCOC(=O)c1ccc(OC(=O)c2cccnc2)cc1 ?
3.58 µM (active)

These data points were gathered from ChEMBL document CHEMBL1201862.
